biological target: Human thrombin (Homo sapiens, UniProt P00734); construct: purchased Haematologic Technologies Inc; experiment: Inhibition of the protease activity of thrombin (chromogenic substrate S-2238); format: biochemical; conditions: inhibition of the protease activity of thrombin; class symbols a/b/c
Outcome measure: IC50

Below: 4 compounds and their reported IC50.
>>> result("CCC(=O)n1nc(-c2cccs2)nc1SC [Cmpd 154]")
"> 1000 nM"
>>> result("COc1ccccc1C(=O)n1nc(-c2ccccn2)nc1NCc1csc2ccccc12 [Cmpd 199]")
"> 1000 nM"
>>> result("O=C(c1ccccc1Cl)n1nc(-c2ccccn2)nc1NCc1ccc(F)cc1 [Cmpd 111]")
"< 100 nM"
>>> result("CN(C)C(=O)c1cc(-c2ccccn2)n(CCc2ccc(F)cc2)n1 [Cmpd 129]")
"> 1000 nM"

# input for lookup
Short answer please: IC50, Human thrombin (Homo sapiens, UniProt P00734), entry CCC(=O)n1nc(-c2ccncc2)nc1NCc1ccc(OC)cc1 [Cmpd 100]
100 to 1000 nM
